Below are Ki values measured for Adenosine receptor A1 (Bos taurus).
// return numeric value only (unit: nM, not printed)

Reported Ki ( COc1ccc(-c2nc3c(N)nc4ccc(Cl)cc4n3n2)cc1 ) = 150

Reported Ki ( Cc1ccc2[nH]c(=O)c3nc(-c4ccccc4)nn3c2c1 ) = 525

Reported Ki ( Cn1c(=O)c2nc(-c3ccccc3)nn2c2ccccc21 ) = 1080

Reported Ki ( Cc1ccc2c(c1)n1nc(-c3ccccc3)nc1c(=O)n2C ) = 508

Reported Ki ( Oc1nc2ccc(Cl)cc2n2nc(-c3ccccc3)nc12 ) = 2400

Reported Ki ( COc1ccc(-c2nc3c(=O)[nH]c4ccc(Cl)cc4n3n2)cc1 ) = 1060

Reported Ki ( O=c1[nH]c2ccccc2n2nc(-c3ccccc3)nc12 ) = 268

All figures here come from ChEMBL document CHEMBL1140434.
